Hey, just so you know, these numbers are from patent US8029764B2.

# Tested on: colorectal tissue transcripts
# TEST_METHOD_NOTES: SAGE of normal, adenoma and cancer colorectal tissue (transcript tag counts)
# Parameters: species or system human
# TEST_CONDITIONS: SAGE library CA1
Recorded CA1 (SAGE tag count) by entry
// response body must contain only the number

Some solved entries appear below for comparison.
ORDERED_RESIDUES	REPORTED
GCACCCTTTC (chemistry not fully specified)	1
CTTACAAGCA (chemistry not fully specified)	4
CTTCTTGCCC (chemistry not fully specified)	0
ACCCAACTGC (chemistry not fully specified)	0
ATATAATCTG (chemistry not fully specified)	5

# input What does the record list as CA1 (SAGE tag count) for GGAAGAGCAC (chemistry not fully specified) ?
# output 2

====

# System: colorectal tissue transcripts
# TEST_METHOD_NOTES: SAGE of normal, adenoma and cancer colorectal tissue (transcript tag counts)
# Set-up: species or system human
# TEST_CONDITIONS: SAGE library CA1
Measured CA1 (SAGE tag count) by item
Write the number on its own, no unit after it.

Completed entries (count: 2):
ORDERED_RESIDUES	PARAMETER_MEASURED	REPORTED
ACAGGGTGAC (chemistry not fully specified)	CA1 (SAGE tag count)	7
AGGTGACTGG (chemistry not fully specified)	CA1 (SAGE tag count)	0

# input # query: CA1 (SAGE tag count) of entry GTGGTTCACG (chemistry not fully specified)
# output 0

# input What CA1 (SAGE tag count) value was documented for this sequence, ACAATTGGTC (chemistry not fully specified) ?
# output 0

# input What does the data say about its CA1 (SAGE tag count)? Entry: CCCCCGAAGC (chemistry not fully specified)
# output 4

# input Data request, read-out CA1 (SAGE tag count), for GCCACGTGGA (chemistry not fully specified)
# output 7

# input Which CA1 (SAGE tag count) reading was recorded for the sequence GTGGTGGCAG (chemistry not fully specified; the letters are possibly those of the target site) ?
# output 10

====

Each entry below carries its reported AD2 (SAGE tag count).
# System: colorectal tissue transcripts
# TEST_METHOD_NOTES: SAGE of normal, adenoma and cancer colorectal tissue (transcript tag counts)
# Parameters: species or system human
# TEST_CONDITIONS: SAGE library AD2
Enter the number alone.

# input // lookup AD2 (SAGE tag count) | system=colorectal tissue transcripts | key= GATGAATCCG (chemistry not fully specified)
# output 2

# input Observed AD2 (SAGE tag count) on colorectal tissue transcripts for ACATTGGGTG (chemistry not fully specified) , please.
# output 34

# input Test system colorectal tissue transcripts; read-out AD2 (SAGE tag count); what value for AAGAAAGCTC (chemistry not fully specified) ?
# output 2

# input Return AD2 (SAGE tag count) measured with colorectal tissue transcripts given this sequence: ATGCGGAGTC (chemistry not fully specified)
# output 3

# input Hello, I am looking for reported AD2 (SAGE tag count) with colorectal tissue transcripts for GCTGGCCCCG (chemistry not fully specified) . Could you help?
# output 0

====

# Test system: colorectal tissue transcripts
# TEST_METHOD_NOTES: SAGE of normal, adenoma and cancer colorectal tissue (transcript tag counts)
# Design: species or system human
# TEST_CONDITIONS: SAGE library AD1
Listing of entries alongside the reported AD1 (SAGE tag count).
Note: the reply should be a number with no unit written.

# annotated cases, reported AD1 (SAGE tag count) shown
ORDERED_RESIDUES	AD1 (SAGE tag count)
CGAGGGGCCA (chemistry not fully specified)	18
CCGGCTTGAG (chemistry not fully specified)	0
GCGAAACTCG (chemistry not fully specified)	1
GCCCACGTCA (chemistry not fully specified)	0
CCATTCCACT (chemistry not fully specified)	2

Please find the next sequence below.
# input Item CTTCTTGCCC (chemistry not fully specified) has what recorded AD1 (SAGE tag count)?
# output 2
